biological target: GSK3α (GST-full length GSK3α) (Homo sapiens (Human), UniProt P49840); assay: GSK3α TR-FRET kinase assay; type: biochemical; details: read-out: GSK3-A (TR-FRET 1 mM ATP); GMean; IC50; 1 mM ATP; geometric mean
Sequence (P49840 whole entry): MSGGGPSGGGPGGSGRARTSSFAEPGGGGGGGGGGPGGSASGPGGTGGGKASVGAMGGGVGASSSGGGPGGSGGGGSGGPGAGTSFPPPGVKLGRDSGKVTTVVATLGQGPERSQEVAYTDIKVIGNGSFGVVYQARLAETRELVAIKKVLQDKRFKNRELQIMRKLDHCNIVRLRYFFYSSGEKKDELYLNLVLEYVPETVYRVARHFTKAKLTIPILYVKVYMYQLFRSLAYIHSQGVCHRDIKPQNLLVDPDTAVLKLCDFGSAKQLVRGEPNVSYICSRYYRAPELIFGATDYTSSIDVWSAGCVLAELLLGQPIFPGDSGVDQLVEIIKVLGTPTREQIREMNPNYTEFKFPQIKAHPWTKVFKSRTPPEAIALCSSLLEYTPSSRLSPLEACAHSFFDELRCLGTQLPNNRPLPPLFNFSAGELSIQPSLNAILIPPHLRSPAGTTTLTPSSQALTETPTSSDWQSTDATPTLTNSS
pIC50: −log10 of the molar value.
Measured pIC50, listed per entry.

| compound | value_observed |
| --- | --- |
| CN1CC2(C3=C(CC(C)(C)CC3=O)Nc3n[nH]c(C4CC(F)(F)C4)c32)c2ccccc21 (centres unmarked) [Compound 119047] | 5.30 to 6.00 |
| Cn1cc(-c2cccc(C3(C)C4=C(CC(C)(C)CC4=O)Nc4n[nH]c(CC(C)(C)C)c43)c2)cn1 (centres unmarked) [Compound 126393] | 5.30 to 6.00 |
| CCC1(c2cccc(N(c3cccnc3)C(C)C)c2)C2=C(CC(C)(C)CC2=O)Nc2n[nH]cc21 (centres unmarked) [Compound 917086] | 6.00 to 7.00 |
| CCC1(c2cccc(C(F)F)c2)C2=C(CC(C)(C)CC2=O)Nc2n[nH]c(C(F)(F)F)c21 (centres unmarked) [Compound 945710] | ≥ 7.00 |
| CC[C@@]1(c2cccc(-c3c(C)nn(C)c3C)c2)C2=C(CC(C)(C)CC2=O)Nc2n[nH]cc21 [Compound 911990] | ≥ 7.00 |
| CCC1(c2cccc(-c3ccnn3C)c2)C2=C(CC(C)(C)CC2=O)Nc2n[nH]c(C(F)(F)F)c21 (centres unmarked) [Compound 945531] | ≥ 7.00 |
| CCC1(c2cccc(-c3ccnc(C(F)(F)F)c3)c2)C2=C(CC(C)(C)CC2=O)Nc2n[nH]cc21 (centres unmarked) [Compound 913350] | ≥ 7.00 |
| CC[C@]1(c2cccc(-c3c(C)nn(C)c3C)c2)C2=C(CC(C)(C)NC2=O)Nc2n[nH]cc21 [Compound 947408] | 6.00 to 7.00 |

Inquiry: Record request: pIC50 value, item CC[C@]1(c2cccc(-c3cc(C)ncc3OC)c2)C2=C(CC(C)(C)CC2=O)Nc2n[nH]cc21 [Compound 945995]
Reply text: 6.00 to 7.00

Inquiry: // same read-out, input: CN(C)S(=O)(=O)c1cccc(C2(C)C3=C(CC(C)(C)CC3=O)Nc3n[nH]c(CC(C)(C)C)c32)c1 (centres unmarked) [Compound 126012]
Reply text: 5.30 to 6.00

Inquiry: Similarly, Cn1cncc1-c1cccc([C@@]2(C)C3=C(CC(C)(C)CC3=O)Nc3n[nH]c(CC(C)(C)C)c32)c1 [Compound 126015] ?
Reply text: < 5.30

Inquiry: Then CC[C@@]1(c2cccc(N(C)c3ncccn3)c2)C2=C(CC(C)(C)NC2=O)Nc2n[nH]cc21 [Compound 943964] ?
Reply text: 6.00 to 7.00

Inquiry: Same lookup for Cn1cc(-c2cccc(C3(C)C4=C(CC(C)(C)CC4=O)Nc4n[nH]c(CC(C)(C)C)c43)c2)cn1 (centres unmarked) [Compound 126394] , please.
Reply text: < 5.30

Inquiry: Cool, now CC[C@]1(c2cccc(-c3cc(C)ncc3C)c2)C2=C(CC(C)(C)CC2=O)Nc2n[nH]c(C)c21 [Compound 913050]
Reply text: ≥ 7.00

###

target: GSK3b (GST-full length GSK3b) (Homo sapiens (Human), UniProt P49841); assay: GSK3b TR-FRET kinase assay; type: biochemical; settings: 1 nM GSK3b, 2 μM ATP, 30 minute preincubation, Table 16; read-out: GSK3-B TR-FRET BIOCHEMICAL (TR-FRET)
Sequence (P49841 whole entry): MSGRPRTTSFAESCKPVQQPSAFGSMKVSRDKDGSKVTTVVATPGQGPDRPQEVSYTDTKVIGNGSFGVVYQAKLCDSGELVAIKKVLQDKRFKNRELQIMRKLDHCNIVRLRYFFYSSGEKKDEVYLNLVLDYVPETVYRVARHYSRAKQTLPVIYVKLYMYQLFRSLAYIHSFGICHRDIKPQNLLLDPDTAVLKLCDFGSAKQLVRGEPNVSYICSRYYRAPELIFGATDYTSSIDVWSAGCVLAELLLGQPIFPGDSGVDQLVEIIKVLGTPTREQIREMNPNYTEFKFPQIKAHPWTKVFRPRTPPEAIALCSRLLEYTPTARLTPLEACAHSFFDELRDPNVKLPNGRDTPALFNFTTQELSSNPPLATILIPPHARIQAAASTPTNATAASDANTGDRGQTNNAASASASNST
pIC50: −log10 of the molar value.
readout_name: pIC50

| compound | pIC50 |
| --- | --- |
| CCC1(c2cccc(-c3cnn4c3CCCC4)c2)C2=C(CC(C)(C)CC2=O)Nc2n[nH]cc21 (stereo not shown) [Compound 945543] | ≥ 7.00 |

Inquiry: Give the reported pIC50 for CCC1(c2cccc(-c3cncn3C)c2)C2=C(CC(C)(C)CC2=O)Nc2n[nH]cc21 (stereo not shown) [Compound 943533] (system: GSK3b (GST-full length GSK3b) (Homo sapiens (Human), UniProt P49841)).
Reply text: ≥ 7.00

Inquiry: Field entry: CC1(C)CC(=O)C2=C(C1)Nc1n[nH]cc1C21CCN(S(=O)(=O)c2cnc3cccnn23)CC1
Reply text: ≥ 7.00

###

Recorded pIC50, one value per entry.
molecular target: GSK3α (GST-full length GSK3α) (Homo sapiens (Human)); test: GSK3α TR-FRET kinase assay; assay type: biochemical; settings: 1 nM GSK3α, 4 μM ATP, 30 minute preincubation, Table 16; read-out: GSK3-A TR-FRET BIOCHEMICAL (TR-FRET)
pIC50: −log10 of the molar value.

// worked examples, pIC50 included
| compound | target_or_system | pIC50 |
| --- | --- | --- |
| CC1(C)CC(=O)C2=C(C1)Nc1n[nH]cc1C21CCN(S(=O)(=O)c2ccc(C(F)(F)F)cn2)CC1 | GSK3α (GST-full length GSK3α) (Homo sapiens (Human)) | ≥ 7.00 |
| CNC(=O)C1CCC2(CC1)C1=C(CC(C)(C)CC1=O)Nc1n[nH]cc12 (stereo not shown) | GSK3α (GST-full length GSK3α) (Homo sapiens (Human)) | 6.00 to 7.00 |
| CCC1(c2cccc(-c3ccnc(C)c3)c2)C2=C(CC3(CCOC3)CC2=O)Nc2n[nH]cc21 (stereo not shown) [Compound 947407] | GSK3α (GST-full length GSK3α) (Homo sapiens (Human)) | ≥ 7.00 |
| COc1cccc(S(=O)(=O)N2CCC3(CC2)C2=C(CC(C)(C)CC2=O)Nc2n[nH]cc23)c1 [Compound 901468] | GSK3α (GST-full length GSK3α) (Homo sapiens (Human)) | ≥ 7.00 |
| CC[C@]1(c2cccc(S(=O)(=O)CCOC)c2)C2=C(CC(C)(C)CC2=O)Nc2n[nH]cc21 | GSK3α (GST-full length GSK3α) (Homo sapiens (Human)) | 5.30 to 6.00 |
| CCC1(c2cccc(-c3ccncc3)c2)C2=C(Nc3n[nH]cc31)C(F)C(C)(C)CC2=O (stereo not shown) [Compound 959342] | GSK3α (GST-full length GSK3α) (Homo sapiens (Human)) | 5.30 to 6.00 |

Consider now this further compound.
Inquiry: Find pIC50 (GSK3α (GST-full length GSK3α) (Homo sapiens (Human))) for the entry Cn1cc(S(=O)(=O)N2CC[C@]3(C2)C2=C(CC(C)(C)CC2=O)Nc2n[nH]cc23)cn1 [Compound 943483]
Reply text: ≥ 7.00

###

target: GSK3b (GST-full length GSK3b) (Homo sapiens (Human), UniProt P49841); experiment: GSK3b TR-FRET kinase assay; type: biochemical; conditions: 1 nM GSK3b, 2 μM ATP, 30 minute preincubation, Table 16; read-out: GSK3-B TR-FRET BIOCHEMICAL (TR-FRET)
pIC50: −log10 of the molar value.
readout_name: pIC50

In the examples that follow, each entry is paired with its recorded pIC50.
| molecule | target_or_system | readout_name | value_observed |
| --- | --- | --- | --- |
| CC1(C)CC(=O)C2=C(C1)Nc1n[nH]cc1C21CCN(S(=O)(=O)c2cnccc2C(F)(F)F)CC1 | GSK3b (GST-full length GSK3b) (Homo sapiens (Human), UniProt P49841) | pIC50 | 6.00 to 7.00 |
| CC1(C)CC(=O)C2=C(Nc3n[nH]cc3[C@]23CC[C@@H](C(F)(F)F)CC3)[C@@H]1F | GSK3b (GST-full length GSK3b) (Homo sapiens (Human), UniProt P49841) | pIC50 | ≥ 7.00 |
| COc1ccc(S(=O)(=O)N2CCCC3(CC2)C2=C(CC(C)(C)CC2=O)Nc2n[nH]cc23)cc1 (centres unmarked) | GSK3b (GST-full length GSK3b) (Homo sapiens (Human), UniProt P49841) | pIC50 | 6.00 to 7.00 |
| COc1cncc(S(=O)(=O)N2CCC3(CC2)C2=C(CC(C)(C)CC2=O)Nc2n[nH]cc23)c1 | GSK3b (GST-full length GSK3b) (Homo sapiens (Human), UniProt P49841) | pIC50 | ≥ 7.00 |
| CC1(C)CC(=O)C2=C(C1)Nc1n[nH]cc1[C@]21CCN(S(=O)(=O)c2ccccc2)C1 | GSK3b (GST-full length GSK3b) (Homo sapiens (Human), UniProt P49841) | pIC50 | ≥ 7.00 |
| CCC1(c2cccc(-c3ccnn3C(C)C)c2)C2=C(CC(C)(C)CC2=O)Nc2n[nH]cc21 (centres unmarked) | GSK3b (GST-full length GSK3b) (Homo sapiens (Human), UniProt P49841) | pIC50 | < 5.30 |
| CC1(C)CC(=O)C2=C(C1)Nc1n[nH]cc1C21CCN(S(=O)(=O)c2cccc(C#N)c2)CC1 | GSK3b (GST-full length GSK3b) (Homo sapiens (Human), UniProt P49841) | pIC50 | ≥ 7.00 |
| CCC1(c2cccc(-c3ccnc(C)n3)c2)C2=C(CC(C)(C)CC2=O)Nc2n[nH]cc21 (centres unmarked) | GSK3b (GST-full length GSK3b) (Homo sapiens (Human), UniProt P49841) | pIC50 | 5.30 to 6.00 |
| CC[C@]1(c2cccc(-c3cn(C)nc3C)c2)C2=C(CC(C)(C)CC2=O)Nc2n[nH]cc21 | GSK3b (GST-full length GSK3b) (Homo sapiens (Human), UniProt P49841) | pIC50 | ≥ 7.00 |
| Cn1cc([C@H]2CC[C@@]3(CC2)C2=C(CC(C)(C)CC2=O)Nc2n[nH]cc23)cn1 | GSK3b (GST-full length GSK3b) (Homo sapiens (Human), UniProt P49841) | pIC50 | 5.30 to 6.00 |

Inquiry: Please look up its pIC50: C[C@H]1C[C@@]2(CCN1S(=O)(=O)c1ccn(C)n1)C1=C(CC(C)(C)CC1=O)Nc1n[nH]cc12
Reply text: ≥ 7.00

Inquiry: How about C[C@H]1C[C@]2(CCN1S(C)(=O)=O)C1=C(CC(C)(C)CC1=O)Nc1n[nH]cc12 ?
Reply text: ≥ 7.00

Inquiry: Could you do the same for CC1(C)CC(=O)C2=C(C1)Nc1n[nH]cc1C21CCN(S(=O)(=O)c2ccccc2C(F)(F)F)CC1 , please?
Reply text: 6.00 to 7.00
